Experiment: drug combination growth inhibition, ovarian cancer – cell-based, oncology-focused library, rucaparib conditional, profiling panel (AID 1508598)
Conditions: patient-derived ovarian cancer cells, CellTiter-Glo viability, 144 h; at 5 µM; OCI-C5x cells; with rucaparib 10 µM; 100% = cells with rucaparib alone
The source made the active and inactive calls.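 The calls were made as follows: active = normalized viability below 100% at a tested concentration; inactive = the rest.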
Possible outcomes: active, inactive

Compound | Class
CO[C@H]1C[C@H]2CC[C@@H](C)[C@@](O)(O2)C(=O)C(=O)N2CCCC[C@H]2C(=O)O[C@H]([C@H](C)C[C@@H]2CC[C@H](OC(=O)C(C)(CO)CO)[C@H](OC)C2)CC(=O)[C@H](C)/C=C(\C)[C@@H](O)[C@@H](OC)C(=O)[C@H](C)C[C@H](C)/C=C/C=C/C=C/1C | active
OCCn1cc(-c2ccc3c(c2)CCC3=NO)c(-c2ccncc2)n1 | inactive
CN(C)CCOc1ccc(-c2nc(-c3ccc4c(c3)CCC4=NO)c(-c3ccncc3)[nH]2)cc1 | inactive
CCOC(=O)NCCCC(=O)NCCc1ccccc1 | inactive
COc1cccc2c1C(=O)c1c(O)c3c(c(O)c1C2=O)C[C@@](O)(C(C)=O)C[C@H]3O[C@H]1C[C@H](N)[C@H](O)[C@H](C)O1 | active
C[C@]12C=CC(=O)C=C1CC[C@@H]1[C@H]2C(=O)C[C@@]2(C)[C@H]1CC[C@@]2(O)C(=O)CO | inactive
CCOc1ccc(Cc2cc([C@@H]3O[C@H](CO)[C@@H](O)[C@H](O)[C@@H]3O)ccc2Cl)cc1 | inactive
CC(=O)O[C@]12CO[C@@H]1C[C@H](O)[C@]1(C)C(=O)[C@H](O)C3=C(C)[C@H](OC(=O)[C@H](O)[C@@H](NC(=O)OC(C)(C)C)c4ccccc4)C[C@](O)([C@H](OC(=O)c4ccccc4)C21)C3(C)C (some centres undefined) | active
COc1cc([C@H]2c3cc4c(cc3[C@@H](O[C@@H]3O[C@@H]5CO[C@@H](C)O[C@H]5[C@H](O)[C@@H]3O)[C@H]3COC(=O)[C@H]23)OCO4)cc(OC)c1O | active
CCc1c2c(nc3ccc(OC(=O)N4CCC(N5CCCCC5)CC4)cc13)-c1cc3c(c(=O)n1C2)COC(=O)[C@@]3(O)CC | active
COc1ccccc1-c1cc(Nc2cccc(CS(N)(=O)=O)c2)ncn1 | inactive
CN(C)CCSSCCNC(=O)C1CCN(C(=O)CSc2ccc(Cl)cc2)CC1 | inactive
CC1(C)C=C(CN2C/C(=C/c3ccc(F)cc3)C(=O)/C(=C/c3ccc(F)cc3)C2)C(C)(C)N1O | inactive
C[C@]12CC[C@H]3c4ccc(O)cc4CC[C@H]3[C@@H]1CC[C@H]2O | active

###

Test: drug combination growth inhibition, ovarian cancer – cell-based, oncology-focused library, rucaparib conditional, profiling panel (AID 1508598)
Settings: patient-derived ovarian cancer cells, CellTiter-Glo viability, 144 h; at 0.000305 µM; OCI-P5x cells; without rucaparib
Calls of active or inactive are those of the source.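 How the source made its calls: active means normalized viability below 100% at a tested concentration; inactive means the rest.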
Outcomes: yes (1) (active), no (0) (inactive)

Compound | Class
CC(=O)O[C@@]1(C(C)=O)CC[C@H]2[C@@H]3C[C@H](C)C4=CC(=O)CC[C@]4(C)[C@@H]3CC[C@@]21C | no (0)
CC[C@]1(O)C[C@@H]2CN(CCc3c([nH]c4ccccc34)[C@@](C(=O)OC)(c3cc4c(cc3OC)N(C=O)[C@H]3[C@@](O)(C(=O)OC)[C@H](OC(C)=O)[C@]5(CC)C=CCN6CC[C@@]43[C@@H]65)C2)C1 | yes (1)
C[C@]12C=CC(=O)C=C1CC[C@@H]1[C@H]2C(=O)C[C@@]2(C)[C@H]1CC[C@@]2(O)C(=O)CO | yes (1)
CC[C@]1(O)C[C@@H]2CN(CCc3c([nH]c4ccccc34)[C@@](C(=O)OC)(c3cc4c(cc3OC)N(C=O)[C@@H]3C45CCN4CC=C[C@](CC)([C@H]45)[C@H](OC(C)=O)[C@]3(O)C(=O)OC)C2)C1 (stereo not given in full) | yes (1)
O=C(O)c1cc(I)ccc1NC(=O)[C@H](Cc1ccccc1)NCc1ccccc1 | no (0)

###

Experiment: viability loss with induced miR-34 in A549 – imaging, A549 dox-inducible miR-34, nuclei and caspase counts, primary screen (AID 1347080)
Settings: A549 miR-34 inducible, Hoechst nuclei count, 48 h; active compounds read low; cell number ratio, induced over uninduced
Quick reference: fold change of the listed items.

Compound | fold change
O=C(NCc1cccc(O)c1)Nc1nc(-c2ccncc2)cs1 | 0.899
Cc1cc(C=Cc2ccc3cc(N(C)C)ccc3[n+]2C)c(C)n1-c1ccccc1 | 1.3
OCC1OC(O[C@]2(CCl)OC(CCl)C(O)C2O)C(O)C(O)C1Cl (stereo partly specified) | 0.895
CCCCCC(=O)/C=C/C=C\C/C=C\C/C=C\CCCC(=O)O | 0.995
Nc1ncnc2c1ncn2C1O[C@H](CO)[C@@H](O)[C@@H]1O (stereo partly specified) | 0.85
CC1C[C@H]2[C@@H]3CCC4=CC(=O)C=C[C@]4(C)[C@@H]3C(=O)C[C@]2(C)[C@]1(O)C(=O)CO (stereo partly specified) | 1.57
Cc1cc(C#N)cc(C)c1Oc1nc(Nc2ccc(C#N)cc2)nc(N)c1Br | 0.85
CN1CCc2cc(Cl)c(O)cc2C(c2ccccc2)C1 (stereo unspecified) | 0.944
Cc1nc(NC(=O)N2CCCC2C(N)=O)sc1-c1csc(C(C)(C)C)n1 (stereo unspecified) | 0.968
NC(=S)NN=Cc1ncccc1N | 1.15
OCCN1C[C@@H](O)[C@@H](O)C(O)C1CO (stereo partly specified) | 0.903
CCC1(O)CC2CN(CCc3c([nH]c4ccccc34)[C@@](C(=O)OC)(c3cc4c(cc3OC)N(C=O)C3[C@]45CCN4CC=C[C@@](CC)([C@@H](OC(C)=O)[C@]3(O)C(=O)OC)[C@H]45)C2)C1 (stereo partly specified) | 1.3
CSCCC(NC(C)=O)C(=O)O (stereo unspecified) | 0.861
NCc1ccccc1CC(=O)N[C@@H]1C(=O)N2C(C(=O)O)=C(CSc3nnnn3CC(=O)O)CS[C@H]12 | 0.949
CN(C)C(CCOc1cccc2ccccc12)c1ccccc1 (stereo unspecified) | 0.873
CCC1=CC2CN(C1)Cc1c([nH]c3ccccc13)[C@@](C(=O)OC)(c1cc3c(cc1OC)N(C)C1[C@@](O)(C(=O)OC)C(OC(C)=O)[C@]4(CC)C=CCN5CC[C@]31C54)C2 (stereo partly specified) | 1.19

###

Parameter z-score: see the listing below.
Experiment: galactose survival enhancers in mitochondrial complex I cybrids – cell-based, galactose medium, ATP luminescence, primary screen (AID 1645843);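 also: positive z means more ATP and so rescue of galactose-driven cybrid death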
Conditions: complex I mutant cybrid cells, 72 h, active compounds read high
Calls of active or inactive are those of the source.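 How the source made its calls: active means z-score of at least 1.8 in each of two replicates, scored against plate mean and spread of sample wells; inactive means the rest.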

Compound | z-score
NC(CCCP(=O)(O)O)C(=O)O (stereo unspecified) | 0.21 (inactive)
C=CCn1nc(C(=O)N2CCSCC2)c2c1CCC(N1CCOc3ccc(Cl)cc3C1)C2 (stereo unspecified) | 0.51 (inactive)
CNS(=O)(=O)c1cc(NCc2cc3ccccc3s2)cc(C(=O)Nc2ccc(OC)cc2)c1 | 2.26 (inactive)
c1ccn2cc(CCNc3ncnc4nc[nH]c34)nc2c1 | -0.4 (inactive)
Cc1ccc(-c2cc(C(=O)NCc3c(C)nn(C)c3C)cc(S(=O)(=O)N3CCOCC3)c2)s1 | 0.42 (inactive)
CC(C)CC(NC(=O)C(O)C(N)Cc1ccccc1)C(=O)O (stereo unspecified) | 0.29 (inactive)
CCN(C(=O)c1cc(-c2cnc(C(C)C)nc2)nc2cc(F)ccc12)C(C)C | -0.47 (inactive)
CCOC(=O)C12CC1/C(=N/O)c1ccccc1O2 (stereo unspecified) | 0.485 (inactive)
COC(=O)C[C@](O)(CCCC(C)(C)O)C(=O)OC1C(OC)=C[C@]23CCCN2CCc2cc4c(cc2C13)OCO4 (stereo partly specified) | -1.86 (inactive)
O=C(C=Cc1ccc(O)c(O)c1)NCCc1ccc(O)cc1 | 0.38 (inactive)
COc1ccc(-c2ccc3cc(Cl)ccc3n2)c(OC)c1 | 1.15 (inactive)
COc1ccc2c(C(=O)N(C)Cc3nonc3C)cc(-c3cnn(C)c3)nc2c1 | -0.54 (inactive)
OC1(c2ccccc2)CCN(Cc2ccc(F)cc2Cl)C1 (stereo unspecified) | -0.93 (inactive)
CC[C@]1(O)CC2CN(CCc3c([nH]c4ccccc34)[C@@](C(=O)OC)(c3cc4c(cc3OC)N(C)C3[C@@](O)(C(N)=O)C(O)[C@]5(CC)C=CCN6CC[C@]43C65)C2)C1 (stereo partly specified) | -1.19 (inactive)
CC(C)c1ncc(-c2cc(C(=O)N3CCC(C)(C)C3)c3ccccc3n2)cn1 | 2.19 (active)
OC[C@H](Cc1ccccc1)NC1CCCCCC1 | -0.555 (inactive)
